Recorded values, source paper PMC2828351.

The entries below come with measured pIC50 values attached.
- MEASURED TARGET: GST-JNK1 (Homo sapiens, UniProt P45983)
- Sequence (P45983 whole entry): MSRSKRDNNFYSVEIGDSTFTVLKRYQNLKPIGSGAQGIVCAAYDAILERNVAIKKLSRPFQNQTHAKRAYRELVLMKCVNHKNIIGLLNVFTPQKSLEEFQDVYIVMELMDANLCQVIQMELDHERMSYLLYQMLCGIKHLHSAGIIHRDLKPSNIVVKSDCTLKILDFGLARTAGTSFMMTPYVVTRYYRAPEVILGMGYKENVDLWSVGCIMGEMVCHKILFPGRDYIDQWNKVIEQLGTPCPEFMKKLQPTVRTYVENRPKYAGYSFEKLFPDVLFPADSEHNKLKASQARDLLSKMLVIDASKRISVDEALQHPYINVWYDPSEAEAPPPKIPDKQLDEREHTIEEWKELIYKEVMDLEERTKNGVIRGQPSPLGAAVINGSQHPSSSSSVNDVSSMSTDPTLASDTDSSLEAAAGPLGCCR
- TEST: pepJIP1 DELFIA displacement assay
pIC50: −log10 of the molar value.

COMPOUND: O=[N+]([O-])c1cnc(Sc2nc3cc(S(=O)(=O)O)ccc3[nH]2)s1 [BI-87H1]
pIC50: < 4.00
//
COMPOUND: Cn1c(Sc2nc3ccc(Cl)cc3s2)nnc1-c1ccc(Cl)cc1Cl [BI-87G12]
pIC50: < 4.00
//
COMPOUND: Cn1c(Sc2nc3ccc(Cl)cc3s2)nnc1-c1ccc2ncccc2c1 [BI-87F12]
pIC50: < 4.00
//
COMPOUND: Nc1ncnc2nc(Sc3ncc([N+](=O)[O-])s3)[nH]c12 [BI-87C10]
pIC50: > 6.00
//
COMPOUND: Nc1ncnc2[nH]c(SCc3ccc(C(=O)O)cc3)nc12 [BI-87C7]
pIC50: < 4.00
//
COMPOUND: CCOc1ccc2nc(Sc3ncc([N+](=O)[O-])s3)sc2c1 [BI-87G2]
pIC50: < 4.00
//
COMPOUND: Cn1c(Sc2nc3ccc(Cl)cc3s2)nnc1-c1cccs1 [BI-87F11]
pIC50: < 4.00
//
COMPOUND: O=C(O)c1ccc(CSc2nc3ccccc3[nH]2)cc1 [BI-87D4]
pIC50: < 4.00
